# SYSTEM TESTED: hVEGFR2 (Homo sapiens)
# Sequence (P35968 20-1356): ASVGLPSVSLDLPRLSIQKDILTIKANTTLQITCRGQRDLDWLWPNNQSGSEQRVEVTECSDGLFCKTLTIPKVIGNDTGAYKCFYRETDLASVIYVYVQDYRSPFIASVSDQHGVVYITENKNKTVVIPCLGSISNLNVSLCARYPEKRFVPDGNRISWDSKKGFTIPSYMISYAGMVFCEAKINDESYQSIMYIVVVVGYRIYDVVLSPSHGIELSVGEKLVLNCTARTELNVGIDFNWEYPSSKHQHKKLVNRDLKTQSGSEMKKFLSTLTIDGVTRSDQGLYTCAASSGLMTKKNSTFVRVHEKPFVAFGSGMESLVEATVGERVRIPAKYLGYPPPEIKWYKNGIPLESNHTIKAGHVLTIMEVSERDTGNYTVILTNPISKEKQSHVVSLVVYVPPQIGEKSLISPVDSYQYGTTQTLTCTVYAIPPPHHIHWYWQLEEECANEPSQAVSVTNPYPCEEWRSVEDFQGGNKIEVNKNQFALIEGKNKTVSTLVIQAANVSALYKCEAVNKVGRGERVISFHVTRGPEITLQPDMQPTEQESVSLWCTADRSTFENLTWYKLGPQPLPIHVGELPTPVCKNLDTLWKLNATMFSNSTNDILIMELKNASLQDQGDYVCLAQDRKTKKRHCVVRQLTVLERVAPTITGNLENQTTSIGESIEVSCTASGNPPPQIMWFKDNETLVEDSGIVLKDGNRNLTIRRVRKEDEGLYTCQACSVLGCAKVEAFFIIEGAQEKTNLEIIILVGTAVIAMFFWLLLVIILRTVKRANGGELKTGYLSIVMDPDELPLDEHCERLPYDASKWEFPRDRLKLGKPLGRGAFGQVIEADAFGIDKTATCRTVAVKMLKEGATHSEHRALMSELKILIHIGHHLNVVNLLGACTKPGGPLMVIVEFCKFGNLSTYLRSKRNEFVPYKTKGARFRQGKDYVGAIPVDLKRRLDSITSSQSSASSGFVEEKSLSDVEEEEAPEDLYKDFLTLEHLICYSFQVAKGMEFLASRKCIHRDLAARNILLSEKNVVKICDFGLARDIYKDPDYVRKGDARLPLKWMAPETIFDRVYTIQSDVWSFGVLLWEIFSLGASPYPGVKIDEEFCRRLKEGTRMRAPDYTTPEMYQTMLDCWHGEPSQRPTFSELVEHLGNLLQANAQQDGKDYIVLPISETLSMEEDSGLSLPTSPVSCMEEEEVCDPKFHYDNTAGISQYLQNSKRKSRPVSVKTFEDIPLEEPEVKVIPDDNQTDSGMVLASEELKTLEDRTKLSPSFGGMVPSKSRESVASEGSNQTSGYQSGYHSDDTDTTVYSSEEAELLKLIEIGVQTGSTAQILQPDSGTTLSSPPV
pIC50: −log10 of the molar value.
Each record here notes measured pIC50.

COMPOUND STRUCTURE STRING	RESULT
COc1cccc(-c2cnc(Nc3ccccc3)o2)c1	> 5.00
CCN(CC)CCNC(=O)c1ccc(Nc2ncc(-c3cccc(OC)c3)o2)cc1	> 6.00
c1cc(OC2CCCC2)cc(-c2cnc(Nc3ccc(N4CCSCC4)cc3)o2)c1	> 6.00
CCOc1cccc(-c2cnc(Nc3ccc(N4CCN(C)CC4)cc3)o2)c1	> 6.00

Now for another entry.
input: Consider the molecule CN1CCN(Cc2ccc(Nc3ncc(-c4ccccc4)o3)cc2)CC1 and give its recorded pIC50.
output: > 6.00
